# Tested on: Malme-3M
# assay details: NCI tumour cell line growth inhibition, 48 h
Active and inactive are the calls of the source. Rule as the data show it: active = GI50 up to about 1.1 µM and inactive = higher.
measurement type: GI50

Record `C/C(CC(=O)Nc1ccc(C)cc1C)=N/N=C(N)N` / Malme-3M, GI50 recorded as > 100 µM (inactive)

Per the reported Malme-3M data, `O=C(c1cccs1)N(C(=S)N1CCN(c2ccccn2)CC1)c1ccccc1` has GI50 of > 100 µM (inactive)

The observed GI50 for `C=C(C)[C@@H]1CC[C@]2(C)CC[C@]3(C)[C@H](CC[C@@H]4[C@@]5(C)CC[C@H](O)C(C)(C)[C@@H]5CC[C@]43C)[C@@H]12` when tested with Malme-3M stands at > 89.3 µM (inactive)

The reported Malme-3M GI50 of `CN(C)P(=O)(/C(N)=N/Nc1ccc([N+](=O)[O-])cc1)N(C)C` is > 100 µM (inactive)

Entry O=C(NC(CCCCN1C(=O)c2ccccc2C1=O)P(=O)(Oc1ccccc1)Oc1ccccc1)OCc1ccccc1 (stereo not drawn) ; assay system Malme-3M; GI50 recorded at > 100 µM (inactive)

Simply: `CC1=C(C(=O)Nc2ccccc2C)C(c2ccco2)C(C(=O)Nc2ccccc2C)=C(C)N1C` , Malme-3M, GI50 = > 100 µM (inactive)

Tested system Malme-3M; GI50 recorded for CC(=O)OCC1OC(n2c(C)c(C(C)=O)c(-c3cccc4ccccc34)c(C#N)c2=S)C(OC(C)=O)C(OC(C)=O)C1OC(C)=O (stereo not drawn) was > 100 µM (inactive)

Measured GI50 (Malme-3M), entry `COc1cc(CNc2nc3cc(C(F)(F)F)ccc3nc2C)cc(OC)c1OC` : 17.5 µM (inactive)
